Data credit: ChEMBL document CHEMBL3217713

- Experimental Details: Iron chelating activity of the compound assessed as reduction of Fe(2)-TPTZ complex formation by UV-visible spectrophotometry
- Type: physicochemical
Endpoint Label: pKd
Answers are plain numbers, as −log10 of the molar value.

# return recorded pKd for input COc1cc(NC(C)CCCNc2ccnc3cc(Cl)ccc23)c2ncccc2c1 (stereo unspecified)
5.28
